For each record, write down the corresponding IC50 SKOV-3.
# System: SKOV-3 cell line
# test: MTT cytotoxicity assay
# measurement_parameters: 120 h treatment
Numeric only. Scale: µg/mL

### Prompt // fetch IC50 SKOV-3 given entry CCCCCCCCCCCCCCCC(=O)[O][Pt]12([O]C(C)=O)([NH]C3CCCCC3[NH]1)[O]C(=O)C(=O)[O]2 (stereo not shown) [OXA-PAL-ACT, oxaliplatin palmitate acetate]
### Response 0.39

### Prompt Give recorded IC50 SKOV-3. O=C1[O][Pt]2([NH][C@@H]3CCCC[C@H]3[NH]2)[O]C1=O [Oxaliplatin, reference compound]
### Response 32.5

### Prompt Output IC50 SKOV-3 of CCCCCCCCCCCCCCCC(=O)[O][Pt]1([O]C(=O)CCC(=O)O)[O]C(=O)C(=O)[O]1.NC1CCCCC1N [OXA-PAL-SUCC]
### Response 20.67
